System: Streptococcus pneumoniae Stpn_297-749
assay-notes: MIC, broth microdilution (NCCLS)
Format: cell-based
condition-set: Table 5, Strain ID F (Table 4): S. pneumoniae Stpn_297-749 Pen R
readout: MIC

molecule="CC[C@H]1OC(=O)[C@H](C)C(=O)[C@H](C)[C@@H](OC2O[C@H](C)C[C@H](N(C)C)[C@H]2O)[C@@](C)(OC)C[C@@H](C)C(=O)[C@H](C)[C@@H]2[C@@H]1OC(=O)N2CCCCn1cnc(-c2ccccc2)c1 (some centres unmarked) [Compound 4710]" reported_value==0.5
molecule="CC[C@H]1OC(=O)[C@H](C)C(=O)[C@H](C)[C@@H](OC2O[C@H](C)C[C@H](N(C)C)[C@H]2O)[C@@](C)(OC)C[C@@H](C)C(=O)[C@H](C)[C@H]2N(CCCCn3cnc4ccccc43)C(=O)O[C@]12CC (some centres unmarked)" reported_value==0.05
molecule="CC[C@H]1OC(=O)[C@H](C)C(=O)[C@H](C)[C@@H](OC2O[C@H](C)C[C@H](N(C)C)[C@H]2O)[C@@](C)(OC)C[C@@H](C)C(=O)[C@H](C)[C@@H]2[C@@H]1OC(=O)N2CCCCc1ccnc2ccccc12 (some centres unmarked) [Compound 4711]" reported_value==0.5
molecule="CC[C@H]1OC(=O)[C@H](C)C(=O)[C@H](C)[C@@H](OC2O[C@H](C)C[C@H](N(C)C)[C@H]2O)[C@@](C)(OC)C[C@@H](C)C(=O)[C@H](C)[C@@H]2[C@@H]1OC(=O)N2CCCCn1ccc2ccccc21 (some centres unmarked)" reported_value==0.5
molecule="CC[C@H]1OC(=O)[C@H](C)C(=O)[C@H](C)[C@@H](OC2O[C@H](C)C[C@H](N(C)C)[C@H]2O)[C@@](C)(OC)C[C@@H](C)C(=O)[C@H](C)[C@@H]2[C@@H]1OC(=O)N2CCCn1cnc2cccnc21 (some centres unmarked)" reported_value==0.5

# returns recorded MIC (system: Streptococcus pneumoniae Stpn_297-749) for CC[C@H]1OC(=O)[C@H](C)[C@@H](O[C@H]2C[C@@](C)(OC)[C@@H](O)[C@H](C)O2)[C@H](C)[C@@H](O[C@@H]2O[C@H](C)C[C@H](N(C)C)[C@H]2O)[C@](C)(OC)C[C@@H](C)C(=O)[C@H](C)[C@@H](O)[C@]1(C)O [Clar., clarithromycin, reference compound]
=0.05

# returns recorded MIC (system: Streptococcus pneumoniae Stpn_297-749) for CC[C@H]1OC(=O)[C@H](C)C(=O)[C@H](C)[C@@H](OC2O[C@H](C)C[C@H](N(C)C)[C@H]2O)[C@@](C)(OC)C[C@@H](C)C(=O)[C@H](C)[C@H]2N(CCCCn3cnc(-c4cccnc4)c3)C(=O)O[C@]12CC (some centres unmarked)
=0.05

# returns recorded MIC (system: Streptococcus pneumoniae Stpn_297-749) for CC[C@H]1OC(=O)[C@H](C)C(=O)[C@H](C)[C@@H](OC2O[C@H](C)C[C@H](N(C)C)[C@H]2O)[C@@](C)(OC)C[C@@H](C)C(=O)[C@H](C)[C@H]2N(CCCCc3ccnc4ccccc34)C(=O)O[C@]12CC (some centres unmarked)
=0.05

---

System: Staphylococcus aureus Stau_33591
assay-notes: MIC, broth microdilution (NCCLS)
Type: cell-based
condition-set: Table 10, Strain ID B (Table 8): Staphylococcus aureus Stau_33591; unit assumed
Entries annotated with measured MIC

compound="CC[C@H]1OC(=O)[C@@](C)(F)C(=O)[C@H](C)[C@@H](OC2O[C@H](C)C[C@H](N(C)C)[C@H]2O)[C@@](C)(OC)C[C@@H](C)C(=O)[C@H](C)[C@H]2N(CCCCn3cnc(-c4ccc(C)nc4)c3)C(=O)O[C@]12CC (some centres unmarked)" reported_value="> 50 µg/mL"
compound="C=C[C@]12OC(=O)N(CCCCn3cc(-c4ccc(OC)nc4)nc3C)[C@@H]1[C@@H](C)C(=O)[C@H](C)C[C@](C)(OC)[C@H](OC1O[C@H](C)C[C@H](N(C)C)[C@H]1O)[C@@H](C)C(=O)[C@@H](C)C(=O)O[C@@H]2CC (some centres unmarked)" reported_value="> 50 µg/mL"

# returns recorded MIC (system: Staphylococcus aureus Stau_33591) for C=C[C@]12OC(=O)N(CCCCn3cnc(-c4ccc(OCC)nc4)c3)[C@@H]1[C@@H](C)C(=O)[C@H](C)C[C@](C)(OC)[C@H](OC1O[C@H](C)C[C@H](N(C)C)[C@H]1O)[C@@H](C)C(=O)[C@@H](C)C(=O)O[C@@H]2CC (some centres unmarked)
> 50 µg/mL

# returns recorded MIC (system: Staphylococcus aureus Stau_33591) for C=C[C@]12OC(=O)N(CCCCn3cnc(-c4ccc(Cl)nc4)c3)[C@@H]1[C@@H](C)C(=O)[C@H](C)C[C@](C)(OC)[C@H](OC1O[C@H](C)C[C@H](N(C)C)[C@H]1O)[C@@H](C)C(=O)[C@@H](C)C(=O)O[C@@H]2CC (some centres unmarked)
> 50 µg/mL

# returns recorded MIC (system: Staphylococcus aureus Stau_33591) for C=C[C@]12OC(=O)N(CCCCn3cnc(-c4ccc(F)nc4)c3)[C@@H]1[C@@H](C)C(=O)[C@H](C)C[C@](C)(OC)[C@H](OC1O[C@H](C)C[C@H](N(C)C)[C@H]1O)[C@@H](C)C(=O)[C@@H](C)C(=O)O[C@@H]2CC (some centres unmarked)
> 50 µg/mL
